Origin of values: the kinase profiling compilation of Christmann-Franck et al. (2016)

# system-name: TAOK3 (human)
# experiment-description: radiometric filter-binding kinase assay, Kinase HotSpot
# condition-notes: compound 0.5 µM; ATP 10 µM
property-measured: residual activity (%)
Quick note: give the figure in %, leave out the unit.

The measured residual activity that O=C(Nc1cccc(Nc2cc(Nc3cccc(C(F)(F)F)c3)ncn2)c1)C1CC1 showed for TAOK3 (human) is 98.7

The measured residual activity that CCn1cnc2c(Nc3cccc(Cl)c3)nc(N[C@@H]3CCCC[C@@H]3N)nc21 showed for TAOK3 (human) is 104

The measured residual activity that CN([C@@H](Cc1ccc(OS(=O)(=O)c2cccc3cnccc23)cc1)C(=O)N1CCN(c2ccccc2)CC1)S(=O)(=O)c1cccc2cnccc12 showed for TAOK3 (human) is 89.9

The measured residual activity that O=C1Cc2c([nH]c3ccc(Br)cc23)-c2ccccc2N1 showed for TAOK3 (human) is 82.8

The measured residual activity that Cn1cnc2cc3c(Nc4cccc(Br)c4)ncnc3cc21 showed for TAOK3 (human) is 97.6

The measured residual activity that CCN(CC)CCCCN1c2ccccc2Oc2ccc(Cl)cc21 showed for TAOK3 (human) is 110

The measured residual activity that Nc1nnc2[nH]c3ccccc3nc1-2 showed for TAOK3 (human) is 97.1

The measured residual activity that COc1ccc(OC)c2c(=S)c3ccccc3[nH]c12 showed for TAOK3 (human) is 92.7

The measured residual activity that COc1cc2ncc(-c3ccccc3)nc2cc1OC showed for TAOK3 (human) is 88.9

The measured residual activity that CN(C)C[C@H]1CCn2c(c(C3=C(c4cn(C)c5ccccc45)C(=O)NC3=O)c3ccccc32)C1 showed for TAOK3 (human) is 96.4

The measured residual activity that Cn1nc2c3c(cccc31)C(=O)c1ccccc1-2 showed for TAOK3 (human) is 87.6

The measured residual activity that O=C(O)/C=C/c1cc(Br)c(Br)c(Br)c1Br showed for TAOK3 (human) is 85.3

The measured residual activity that COc1ccc(CNC(=O)Nc2ncc([N+](=O)[O-])s2)cc1 showed for TAOK3 (human) is 98.5

The measured residual activity that O=C1NC(=O)/C(=C\c2ccc3nccnc3c2)S1 showed for TAOK3 (human) is 93.1

The measured residual activity that CC(C)[C@H](CO)Nc1nc(Nc2cc(N)cc(Cl)c2)c2ncn(C(C)C)c2n1 showed for TAOK3 (human) is 86.9

The measured residual activity that Cc1nc2cc3nc(-c4cccs4)cnc3cc2n1C showed for TAOK3 (human) is 116
